# assayed_system: VCB / Brd4^BD2 ternary complex (Homo sapiens, UniProt O60885+P40337)
# procedure_text: ITC ternary titration, VCB into Brd4^BD2–PROTAC complex
# Type: binding
# condition_context: ternary; VCB in syringe, Brd4^BD2–PROTAC in cell
# Lookup of reported stoichiometry N keyed by entry

sample_smiles: CC(=O)N1c2ccc(-c3ccc(C(=O)NCCOCCOCC(=O)N[C@H](C(=O)N4C[C@H](O)C[C@H]4C(=O)NCc4ccc(-c5scnc5C)cc4)C(C)(C)C)cc3)cc2[C@H](Nc2ccc(Cl)cc2)C[C@@H]1C
stoichiometry N: 1.07
//
sample_smiles: CC(=O)N1c2ccc(-c3ccc(C(=O)NCCOCCOCCOCCOCC(=O)N[C@H](C(=O)N4C[C@H](O)C[C@H]4C(=O)NCc4ccc(-c5scnc5C)cc4)C(C)(C)C)cc3)cc2[C@H](Nc2ccc(Cl)cc2)C[C@@H]1C
stoichiometry N: 0.87
//
sample_smiles: Cc1ncsc1-c1ccc(CNC(=O)[C@@H]2C[C@@H](O)CN2C(=O)[C@@H](NC(=O)COCCOCCOCCOCCNC(=O)C[C@@H]2N=C(c3ccc(Cl)cc3)c3c(sc(C)c3C)-n3c(C)nnc32)C(C)(C)C)cc1
stoichiometry N: 0.76

* * *

# assayed_system: Brd4^BD2 (Homo sapiens, UniProt O60885)
# procedure_text: ITC binary titration, Brd4^BD2 into PROTAC
# Assay type: binding
# condition_context: Brd4^BD2 in syringe, PROTAC in cell
Each entry gets condition not met if its stoichiometry N stays under 0.9, and condition met if its stoichiometry N is 0.9 or above.

sample_smiles: CC(=O)N1c2ccc(-c3ccc(C(=O)NCCOCCOCCOCC(=O)N[C@H](C(=O)N4C[C@H](O)C[C@H]4C(=O)NCc4ccc(-c5scnc5C)cc4)C(C)(C)C)cc3)cc2[C@H](Nc2ccc(Cl)cc2)C[C@@H]1C
group: condition met
--
sample_smiles: Cc1ncsc1-c1ccc(CNC(=O)[C@@H]2C[C@@H](O)CN2C(=O)[C@@H](NC(=O)COCCOCCNC(=O)C[C@@H]2N=C(c3ccc(Cl)cc3)c3c(sc(C)c3C)-n3c(C)nnc32)C(C)(C)C)cc1
group: condition not met
--
sample_smiles: CC(=O)N1c2ccc(-c3ccc(C(=O)NCCOCCOCCOCCOCC(=O)N[C@H](C(=O)N4C[C@H](O)C[C@H]4C(=O)NCc4ccc(-c5scnc5C)cc4)C(C)(C)C)cc3)cc2[C@H](Nc2ccc(Cl)cc2)C[C@@H]1C
group: condition not met
--
sample_smiles: Cc1ncsc1-c1ccc(CNC(=O)[C@@H]2C[C@@H](O)CN2C(=O)[C@@H](NC(=O)COCCOCCOCCOCCNC(=O)C[C@@H]2N=C(c3ccc(Cl)cc3)c3c(sc(C)c3C)-n3c(C)nnc32)C(C)(C)C)cc1
group: condition not met
--
sample_smiles: CC(=O)N1c2ccc(-c3ccc(C(=O)NCCOCCOCC(=O)N[C@H](C(=O)N4C[C@H](O)C[C@H]4C(=O)NCc4ccc(-c5scnc5C)cc4)C(C)(C)C)cc3)cc2[C@H](Nc2ccc(Cl)cc2)C[C@@H]1C
group: condition not met

* * *

# assayed_system: VCB / Brd4^BD2 ternary complex (Homo sapiens, UniProt O60885+P40337)
# procedure_text: ITC ternary titration, VCB into Brd4^BD2–PROTAC complex
# Type: binding
# condition_context: ternary complex formation with VCB and Brd4^BD2; as tabulated in Table 2
Each entry gets no (0) if its cooperativity (α) Brd4–BD2 stays under 5, and yes (1) if its cooperativity (α) Brd4–BD2 is 5 or above.

sample_smiles: CC(=O)N1c2ccc(-c3ccc(C(=O)NCCOCCOCC(=O)N[C@H](C(=O)N4C[C@H](O)C[C@H]4C(=O)NCc4ccc(-c5scnc5C)cc4)C(C)(C)C)cc3)cc2[C@H](Nc2ccc(Cl)cc2)C[C@@H]1C
group: no (0)
--
sample_smiles: Cc1ncsc1-c1ccc(CNC(=O)[C@@H]2C[C@@H](O)CN2C(=O)[C@@H](NC(=O)COCCOCCNC(=O)C[C@@H]2N=C(c3ccc(Cl)cc3)c3c(sc(C)c3C)-n3c(C)nnc32)C(C)(C)C)cc1
group: yes (1)
--
sample_smiles: Cc1ncsc1-c1ccc(CNC(=O)[C@@H]2C[C@@H](O)CN2C(=O)[C@@H](NC(=O)COCCOCCOCCOCCNC(=O)C[C@@H]2N=C(c3ccc(Cl)cc3)c3c(sc(C)c3C)-n3c(C)nnc32)C(C)(C)C)cc1
group: no (0)
--
sample_smiles: CC(=O)N1c2ccc(-c3ccc(C(=O)NCCOCCOCCOCC(=O)N[C@H](C(=O)N4C[C@H](O)C[C@H]4C(=O)NCc4ccc(-c5scnc5C)cc4)C(C)(C)C)cc3)cc2[C@H](Nc2ccc(Cl)cc2)C[C@@H]1C
group: no (0)
--
sample_smiles: CC(=O)N1c2ccc(-c3ccc(C(=O)NCCOCCOCCOCCOCC(=O)N[C@H](C(=O)N4C[C@H](O)C[C@H]4C(=O)NCc4ccc(-c5scnc5C)cc4)C(C)(C)C)cc3)cc2[C@H](Nc2ccc(Cl)cc2)C[C@@H]1C
group: no (0)
